# assay-comment: Pharmacokinetics in mice, brain
# Assay type: in vivo, C57BL/6 mice
# protocol-conditions: male, C57BL/6; mouse brain table, IV, 1 mg/kg
readout-kind: clearance (mL/min/kg)
Return type: number; implicit unit mL/min/kg.

// clearance lookup, compound = CN(C)CCc1c[nH]c2cccc(O)c12 [Psilocin, psilocin, reference compound] , result: 24.1

====

Entries annotated with measured inhibition at 10 min, 10 µM
# target-or-test-system: CYP2C19 (Homo sapiens (Human))
# Sequence (P33261 whole entry, looked up): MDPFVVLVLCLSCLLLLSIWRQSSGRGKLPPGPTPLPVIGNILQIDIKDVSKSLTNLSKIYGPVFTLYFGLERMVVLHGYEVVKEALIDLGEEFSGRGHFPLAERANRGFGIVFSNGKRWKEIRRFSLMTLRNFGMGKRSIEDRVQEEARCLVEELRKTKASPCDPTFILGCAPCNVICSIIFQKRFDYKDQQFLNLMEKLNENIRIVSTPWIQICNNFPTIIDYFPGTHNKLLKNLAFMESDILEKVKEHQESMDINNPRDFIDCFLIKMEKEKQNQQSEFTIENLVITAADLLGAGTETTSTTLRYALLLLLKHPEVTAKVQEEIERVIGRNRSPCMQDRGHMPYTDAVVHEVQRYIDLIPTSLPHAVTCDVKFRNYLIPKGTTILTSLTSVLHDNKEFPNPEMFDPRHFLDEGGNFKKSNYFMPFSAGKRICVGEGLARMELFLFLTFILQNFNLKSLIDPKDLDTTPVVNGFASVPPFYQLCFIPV
# assay-comment: CYP inhibition in human liver microsomes, CYP2C19
# Format: in vitro ADME
# protocol-conditions: both sexes, human, pooled human liver microsomes, pH 7.4, probe (S)-mephenytoin (30 μM); HLM, 10 μM, (S)-mephenytoin substrate; read-out: CYP 2C19 % Inhibition at 10 μM
Kindly provide the numeric value in % only, without the unit symbol.

[[record]]
chemical_smiles = "CCCN(CC)CCc1c[nH]c2ccccc12"
readout_kind = "inhibition at 10 min, 10 µM"
value_observed = 2.3


For reference, reported inhibition at 10 min, 10 µM for `CCN(C)CCc1c[nH]c2ccccc12` stands at 0
